molecular target: HIV-1 protease (Human immunodeficiency virus type 1 group M subtype B, UniProt P04585); assay: Fluorescence HIV-1 Protease Inhibitor Assay (Pandex); type: biochemical; design: made in house; host or cells: E. coli K12 L507/pHP10D (NRRL B-18560); conditions: normalized to positive control (=1.0); * = a calculated average
So basically, if Fluorescence Assay IC50 comes in under 0.09 µg/mL it's y, and if it's 0.09 µg/mL or more it's n.

Lab note: confirm whether the reported Fluorescence Assay IC50 for this compound is below 0.09 µg/mL, equality not counting. compound: CC(C)(C)NC(=O)c1ccccc1C[C@@H](O)[C@@H](CSc1ccc2ccccc2c1)NC(=O)c1cccc(O)c1Cl (relative stereo)
n

Record Cc1c(O)cccc1C(=O)N[C@H](CSc1ccc2ccccc2c1)[C@H](O)Cc1ccc2ccccc2c1C(=O)NC(C)(C)C (relative stereo) : is its Fluorescence Assay IC50 strictly below 0.09 µg/mL?
n

Below 0.09 µg/mL on Fluorescence Assay IC50? Entry Cc1c(N)cc(N)cc1C(=O)N[C@H](CSc1ccc2ccccc2c1)[C@H](O)Cc1ccccc1C(=O)NC(C)(C)C (relative stereo)
y

Is 0.09 µg/mL strictly greater than the compound's reported Fluorescence Assay IC50? compound: Cc1c(O)cccc1C(=O)NC(Cc1ccccc1)C(O)CN1CC2CCCCC2CC1C(=O)NC(C)(C)C (stereo not drawn)
y

Hi there! Is Fluorescence Assay IC50 for Cc1ccc(O)cc1C(=O)N[C@H](CSc1ccc2ccccc2c1)[C@H](O)Cc1ccccc1C(=O)NC(C)(C)C (relative stereo) below 0.09 µg/mL, do you know?
n

----------
biological target: HIV-1 protease (Human immunodeficiency virus type 1 group M subtype B); assay: Fluorescence HIV-1 Protease Inhibitor Assay (Pandex); format: biochemical; parameters: made in house; host or cells: E. coli K12 L507/pHP10D (NRRL B-18560); conditions: value as run; 35B value of the same run in footnote or parentheses; read-out: Pandex IC50 ng/ml (converted)
Kindly apply the following: Y if IC50 is less than 200 nM, N in every other case.

CCCc1c(O)cccc1C(=O)NC(Cc1ccccc1)C(O)CN1CC2CCCCC2CC1C(=O)NC(C)(C)C (stereo not drawn) [Example 22] : Y

Lab note: IC50 threshold 200 nM. Does this compound come in strictly under it? Cc1c(OP(=O)(O)O)cccc1C(=O)N[C@@H](Cc1ccccc1)[C@H](O)CN1C[C@H]2CCCC[C@H]2C[C@H]1C(=O)NC(C)(C)C (relative stereo) [Example 78]
N

Does CC(=O)Oc1cccc(C(=O)N[C@@H](Cc2ccccc2)[C@H](O)CN2C[C@H]3CCCC[C@H]3C[C@H]2C(=O)NC(C)(C)C)c1C (relative stereo) [Example 82] have IC50 strictly under 200 nM?
N

Hello, is IC50 of the following compound strictly smaller than 200 nM? CC(C)c1c(O)cccc1C(=O)NC(Cc1ccccc1)C(O)CN1CC2CCCCC2CC1C(=O)NC(C)(C)C (stereo not drawn) [Example 20]
Y

Could you please tell me whether IC50 recorded for CC(C)(C)NC(=O)[C@@H]1C[C@@H]2SCC[C@@H]2CN1C[C@@H](O)[C@H](CSc1ccccc1)NC(=O)C1CCS(=O)(=O)C1 (relative stereo) [Example 89] is less than 200 nM?
Y

Just wondering, is IC50 of Cc1c(N)cccc1C(=O)NC(Cc1ccccc1)C(O)CN1CC2CCCCC2CC1C(=O)NC(C)(C)C (stereo not drawn) [Example 18] below 200 nM?
Y

----------
endpoint_label: melting point

Cc1c(C(=O)NC(CSc2ccc3ccccc3c2)C(O)Cc2ccccc2C(=O)NC(C)(C)C)cccc1[N+](=O)[O-] (centres unmarked) : 80 to 81 °C
CN1CCc2c(cccc2C(=O)N[C@@H](CSc2ccc3ccccc3c2)[C@H](O)Cc2ccccc2C(=O)NC(C)(C)C)C1 (relative stereo) : 110 to 113 °C
Cc1ccc([N+](=O)[O-])cc1C(=O)NC(CSc1ccc2ccccc2c1)C(O)Cc1ccccc1C(=O)NC(C)(C)C (centres unmarked) : 85 to 88 °C
Cc1c(N)cccc1C(=O)NC(CSc1ccc2ccccc2c1)C(O)Cc1ccccc1C(=O)NC(C)(C)C (centres unmarked) : 105 to 106 °C

What value of melting point has been reported for the following compound? CC(C)(C)NC(=O)c1ccccc1CC(O)C(CSc1ccc2ccccc2c1)NC(=O)c1cccc(N)c1 (centres unmarked)
101 to 102 °C

----------
target: HIV-1 protease (Human immunodeficiency virus type 1 group M subtype B); assay: Fluorescence HIV-1 Protease Inhibitor Assay (Pandex); type: biochemical; parameters: made in house; host or cells: E. coli K12 L507/pHP10D (NRRL B-18560); settings: value as run; 35B value of the same run in footnote or parentheses; read-out: Pandex IC50 ng/ml (converted)
log10 IC50 listing for selected compounds.
Answers are given as log10 of IC50 in µM.

CC(C)(C)NC(=O)[C@@H]1CN(Cc2cccnc2)CCN1C[C@@H](O)[C@H](CSc1ccccc1)NC(=O)c1cccc2c1CCCN2 : -2.50

Look up log10 IC50 for this compound: Cc1c(OP(=O)(O)O)cccc1C(=O)N[C@@H](CSc1ccccc1)[C@H](O)CN1C[C@H]2CCCC[C@H]2C[C@H]1C(=O)NC(C)(C)C.Cl (relative stereo) [Example 80, Phosphate Hydrochloride]
-2.23

Entry CCCCc1c(O)cccc1C(=O)NC(Cc1ccccc1)C(O)CN1CC2CCCCC2CC1C(=O)NC(C)(C)C (centres unmarked) has what log10 IC50?
-1.86

Name the reported log10 IC50 value associated with the compound CC(C)(C)NC(=O)C1CC2CCCCC2CN1CC(O)C(Cc1ccccc1)NC(=O)c1cccnc1Cl (centres unmarked)
-0.02

Value lookup for log10 IC50; key = Cc1ccsc1C(=O)N[C@@H](CSc1ccccc1)[C@H](O)CN1C[C@H]2CCCC[C@H]2C[C@H]1C(=O)NC(C)(C)C (relative stereo)
-1.32

Endpoint output: log10 IC50 of Cc1c(N)cc(N)cc1C(=O)NC(Cc1ccccc1)C(O)CN1CC2CCCCC2CC1C(=O)NC(C)(C)C (centres unmarked) . Value?
-1.02

Quick check: log10 IC50 of CC(C)(C)NC(=O)C1CC2CCCCC2CN1CC(O)C(CSc1ccccc1)NC(=O)c1cccc2ncccc12 (centres unmarked) ?
-2.23

Value lookup for log10 IC50; key = CC(C)(C)NC(=O)C1CC2CCCCC2CN1CC(O)C(CSc1ccccc1)NC(=O)c1cccc2c1CCCN2 (centres unmarked)
-2.60

Which log10 IC50 value belongs to CC(C)(C)NC(=O)C1CC2CCCCC2CN1CC(O)C(Cc1ccccc1)NC(=O)c1cccc(O)c1F (centres unmarked) ?
-0.07

Any idea what its log10 IC50 is? The compound is CC(C)(C)NC(=O)C1CC2CCCCC2CN1CC(O)C(Cc1ccccc1)NC(=O)c1ccc[n+]([O-])c1 (centres unmarked)
0.28

----------
target: HIV-1 protease (Human immunodeficiency virus type 1 group M subtype B); test: Fluorescence HIV-1 Protease Inhibitor Assay (Pandex); assay type: biochemical; parameters: made in house; host or cells: E. coli K12 L507/pHP10D (NRRL B-18560); settings: normalized to positive control (=1.0); * = a calculated average
endpoint_label: Fluorescence Assay IC50 (µg/mL)
# number only, unit µg/mL dropped from output

# count of solved cases: 5
CC(C)(C)NC(=O)C1CC2CCCCC2CN1CC(O)C(Cc1ccccc1)NC(=O)c1cccc(Cl)c1Cl (centres unmarked) : 0.101
Cc1c(O)cccc1C(=O)N[C@H](CSc1ccc2ccccc2c1)[C@H](O)Cc1ccccc1C(=O)NC(C)(C)C (relative stereo) : 0.063
Cc1ccc(CO)cc1C(=O)N[C@@H](Cc1ccccc1)[C@H](O)Cc1ccccc1C(=O)NC(C)(C)C (relative stereo) : 0.006
Cc1c(C(=O)N[C@@H](Cc2ccccc2)[C@H](O)CN2C[C@H]3CCCC[C@H]3C[C@H]2C(=O)NC(C)(C)C)cc[nH]c1=O (relative stereo) : 0.329
Cc1ccccc1C(=O)N[C@H](CSc1ccc2ccccc2c1)[C@H](O)Cc1ccccc1C(=O)NC(C)(C)C (relative stereo) : 0.281

Under HIV-1 protease (Human immunodeficiency virus type 1 group M subtype B): Fluorescence Assay IC50 value of CC(C)(C)NC(=O)c1ccccc1C[C@@H](O)[C@@H](CSc1ccc2ccccc2c1)NC(=O)c1cccc(O)c1 (relative stereo) ?
0.5

Query for HIV-1 protease (Human immunodeficiency virus type 1 group M subtype B): what Fluorescence Assay IC50 does the record show for Cc1cnccc1C(=O)NC(CSc1ccccc1)C(O)CN1CCN(Cc2cccnc2)CC1C(=O)NC(C)(C)C (centres unmarked) ?
0.0317

Notebook: pull reported Fluorescence Assay IC50 for HIV-1 protease (Human immunodeficiency virus type 1 group M subtype B), entry CNc1cccc(C(=O)N[C@H](CSc2ccc3ccccc3c2)[C@H](O)Cc2ccccc2C(=O)NC(C)(C)C)c1C (relative stereo)
0.54
